# Reported conditions: in isopropanol, 303.15 K
Measurement name: solubility (mole fraction)
Output: the number by itself.

I'd like to know its solubility (mole fraction). The molecule in question is `CC(=O)N[C@H](C(=O)O)C(C)C`
0.0782

###

# Reported conditions: in acetone, 293.15 K
Measurement name: solubility (mole fraction)

Could you tell me which solubility (mole fraction) is on file for `CC(=O)N[C@H](C(=O)O)C(C)C` ?
0.0163

###

# Reported conditions: in water, 288.15 K
Measurement name: solubility (mole fraction)
Reply: number alone, nothing else.

Quick check: solubility (mole fraction) of `CC(=O)N[C@H](C(=O)O)C(C)C` ?
0.00611

###

# Reported conditions: in isobutanol, 308.15 K
Measurement name: solubility (mole fraction)
Give your answer as a number; write no unit.

Item `CC(=O)N[C@H](C(=O)O)C(C)C` has what recorded solubility (mole fraction)?
0.0777

###

# Reported conditions: in isobutanol, 323.15 K
Measurement name: solubility (mole fraction)
No unit in the answer, please; the number alone is enough.

Fill blank: measured solubility (mole fraction) of the compound `CC(=O)N[C@H](C(=O)O)C(C)C` is ____.
0.114

###

# Reported conditions: in water, 293.15 K
Measurement name: solubility (mole fraction)

// returns reported solubility (mole fraction) for input `CC(=O)N[C@H](C(=O)O)C(C)C`
0.0066

###

# Reported conditions: in acetone, 318.15 K
Measurement name: solubility (mole fraction)

Find the recorded solubility (mole fraction) belonging to `CC(=O)N[C@H](C(=O)O)C(C)C` and report it.
0.039

###

# Reported conditions: in n-butanol, 308.15 K
Measurement name: solubility (mole fraction)

So what does the record say about solubility (mole fraction) for `CC(=O)N[C@H](C(=O)O)C(C)C` ?
0.0786

###

# Reported conditions: in isopropanol, 318.15 K
Measurement name: solubility (mole fraction)
// return just the number, without any unit appended

Could you tell me which solubility (mole fraction) is on file for `CC(=O)N[C@H](C(=O)O)C(C)C` ?
0.12

###

# Reported conditions: in n-propanol, 308.15 K
Measurement name: solubility (mole fraction)
Reply briefly: the number, and no unit.

// query solubility (mole fraction) value for entry `CC(=O)N[C@H](C(=O)O)C(C)C`
0.111

###

# Reported conditions: in methyl acetate, 293.15 K
Measurement name: solubility (mole fraction)
# answer = number (no unit)

Reported solubility (mole fraction), molecule `CC(=O)N[C@H](C(=O)O)C(C)C` : ____
0.00485

###

# Reported conditions: in ethyl acetate, 308.15 K
Measurement name: solubility (mole fraction)
No unit in the answer, please; the number alone is enough.

Fill in the blank: the reported solubility (mole fraction) of `CC(=O)N[C@H](C(=O)O)C(C)C` is ____.
0.00718

###

# Reported conditions: in n-butanol, 298.15 K
Measurement name: solubility (mole fraction)
Number only, no unit.

Endpoint output: solubility (mole fraction) of `CC(=O)N[C@H](C(=O)O)C(C)C` . Value?
0.0595

###

# Reported conditions: in isobutanol, 288.15 K
Measurement name: solubility (mole fraction)
Keep it simple and answer with nothing but the number.

May I ask what solubility (mole fraction) has been recorded for `CC(=O)N[C@H](C(=O)O)C(C)C` ?
0.0396

###

# Reported conditions: in ethyl acetate, 298.15 K
Measurement name: solubility (mole fraction)

If you can, please state the reported solubility (mole fraction) value of `CC(=O)N[C@H](C(=O)O)C(C)C` .
0.00487
